molecular target: human MRGPRX2 (Homo sapiens, UniProt Q96LB1); test: Fluo-4 calcium assay in HEK293 cells stably expressing human MRGPRX2 and Galpha15 (fluorescent plate reader); conditions: calcium response, multiple runs, FIG. 4
Sequence (Q96LB1 whole entry): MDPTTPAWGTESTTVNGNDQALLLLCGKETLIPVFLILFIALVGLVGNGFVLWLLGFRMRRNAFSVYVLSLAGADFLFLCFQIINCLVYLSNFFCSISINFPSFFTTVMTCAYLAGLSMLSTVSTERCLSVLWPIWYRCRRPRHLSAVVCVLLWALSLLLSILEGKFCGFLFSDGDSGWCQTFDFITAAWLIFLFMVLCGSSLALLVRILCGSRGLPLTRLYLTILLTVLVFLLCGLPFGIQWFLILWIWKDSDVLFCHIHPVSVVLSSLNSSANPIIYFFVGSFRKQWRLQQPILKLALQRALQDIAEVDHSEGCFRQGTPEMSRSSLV
Value type: EC50

### Prompt Recall the reported EC50 of Cc1cc(O)cc(C)c1C[C@H](NC(=O)[C@H](N)CCCNC(=N)N)C(=O)N[C@@H](CCCCN)c1nc(Cc2ccccc2)no1 [bevemipretide] when tested on human MRGPRX2 (Homo sapiens, UniProt Q96LB1).
### Response 43.8 to 54.1 µM
